Target: DNA topoisomerase 2-alpha (Homo sapiens)
Assay: Inhibition of human DNA topoisomerase 2alpha-mediated relaxation of supercoiled pBR322 DNA at 100 uM after 30 mins by agarose gel electrophoretic analysis
Observable: inhibition

INSERT INTO results (compound, observable, endpoint_result) VALUES
  ('O=C1c2ccc3ccccc3c2-n2c1nc1cc3ccccc3cc1c2=O', 'inhibition', '53.5%'),
  ('O=C1c2ccc3ccccc3c2-n2c1nc1ccccc1c2=O', 'inhibition', '14%'),
  ('O=C1c2cc3ccccc3cc2-n2c1nc1ccccc1c2=O', 'inhibition', '75.9%'),
  ('O=C1c2c(ccc3ccccc23)-n2c1nc1cc3ccccc3cc1c2=O', 'inhibition', '71.3%'),
  ('O=C1c2c(ccc3ccccc23)-n2c1nc1ccccc1c2=O', 'inhibition', '8.13%'),
  ('O=C1c2ccccc2-n2c1nc1ccccc1c2=O', 'inhibition', '4.54%'),
  ('O=C1c2ccccc2-n2c1nc1cc3ccccc3cc1c2=O [BENZO[K]TRYPTANTHRIN]', 'inhibition', '16%'),
  ('O=C1c2cc3ccccc3cc2-n2c1nc1cc3ccccc3cc1c2=O', 'inhibition', '12.6%');

###

Tested on: HCT-15
Test: Cytotoxicity against human HCT15 cells after 72 hrs by MTT assay
Type: functional, cell-based
Details: HCT-15, 72 h
Observable: IC50 (µM)

INSERT INTO measurements (record_smiles, test_target, endpoint_result) VALUES
  ('O=C1c2ccc3ccccc3c2-n2c1nc1ccccc1c2=O', 'HCT-15', 12.6),
  ('O=C1c2ccccc2-n2c1nc1ccccc1c2=O', 'HCT-15', 8.49),
  ('O=C1c2c(ccc3ccccc23)-n2c1nc1ccccc1c2=O', 'HCT-15', 24.7);
